Each entry below lists one item and its recorded Post-emergence action against STEME in % value.
System: STEME
Assay: Herbicidal post-emergence action 1a (greenhouse pots, visual rating)
Type: in vivo, Stellaria media
Conditions: Dosage 320 g/ha; rated visually about 3 weeks after treatment; 100% = plants have died, 0% = like control plants
Please provide the amount together with its unit, number first.

- COMPOUND: "COC(=O)C(C)Oc1nn(-c2cnccn2)c(-c2ccnc(F)c2)c1Br (racemic)"
  Post-emergence action against STEME in %: "90%"
- COMPOUND: "COC(=O)COc1nn(-c2cnccn2)c(-c2cncc(F)c2)c1Br"
  Post-emergence action against STEME in %: "90%"
- COMPOUND: "CCOC(=O)COc1nn(-c2cnccn2)c(-c2ccccc2)c1Br"
  Post-emergence action against STEME in %: "90%"

Next:
### Prompt Can you share its Post-emergence action against STEME in %? I mean this compound: `CCOC(=O)COc1nn(-c2cnccn2)c(-c2cccc(F)c2)c1Br`
### Response 80%

* * *

Tested on: PHBPU
Experiment: Herbicidal pre-emergence action 2a (greenhouse pots, visual scoring)
Assay type: in vivo, Pharbitis purpurea
Settings: dosage 320 g/ha, visual scoring after about 3 weeks vs untreated controls
Each entry below lists one item and its recorded Pre-emergence action against PHBPU in % value.
Provide the reading as a plain figure in %.

- COMPOUND: "COC(=O)C(C)Oc1nn(-c2cnccn2)c(-c2cncc(F)c2)c1Br (racemic)"
  Pre-emergence action against PHBPU in % / %: 90
- COMPOUND: "COC(=O)C(C)Oc1nn(-c2cnccn2)c(-c2ccnc(F)c2)c1Cl (racemic)"
  Pre-emergence action against PHBPU in % / %: 80
- COMPOUND: "C[C@@H](Oc1nn(-c2cnccn2)c(-c2cncc(F)c2)c1Br)C(=O)O"
  Pre-emergence action against PHBPU in % / %: 90
- COMPOUND: "C[C@@H](Oc1nn(-c2cnccn2)c(-c2cccc(F)c2)c1Br)C(=O)O"
  Pre-emergence action against PHBPU in % / %: 90
- COMPOUND: "C[C@@H](Oc1nn(-c2cnccn2)c(-c2cncc(F)c2)c1Cl)C(=O)O"
  Pre-emergence action against PHBPU in % / %: 100

Next:
### Prompt Can you share its Pre-emergence action against PHBPU in %? I mean this compound: `CCOC(=O)COc1nn(-c2cnccn2)c(-c2cncc(F)c2)c1Cl`
### Response 90

* * *

System: AMARE
Assay: Herbicidal post-emergence action 1a (greenhouse pots, visual rating)
Format: in vivo, Amaranthus retroflexus
Settings: dosage 320 g/ha, visual rating about 3 weeks after treatment
Procedure: [table] a) Seeds of monocotyledonous and dicotyledonous weeds and crop plants are placed in sandy loam in plastic or organic plant pots, covered with soil and cultivated in a greenhouse under controlled growth conditions. 2 to 3 weeks after sowing, the test plants are treated at the one-leaf stage. […]
ENDPOINT LABEL: Post-emergence action against AMARE in % (%)
Provide the reading as a plain figure in %.

Guide cases for Post-emergence action against AMARE in %, answers given:
- INPUT SMILES: "COC(=O)COc1nn(-c2cnccn2)c(-c2ccc(F)nc2)c1Br"
  Post-emergence action against AMARE in % (%): 90
- INPUT SMILES: "COC(=O)COc1nn(-c2cnccn2)c(-c2ccc(F)c(F)c2)c1Br"
  Post-emergence action against AMARE in % (%): 80
- INPUT SMILES: "COC(=O)[C@@H](C)Oc1nn(-c2nccnc2F)c(-c2ccc(F)nc2)c1Br"
  Post-emergence action against AMARE in % (%): 80

Next:
### Prompt Can you share its Post-emergence action against AMARE in %? I mean this compound: `CCOC(=O)[C@@H](C)Oc1nn(-c2cnccn2)c(-c2cncc(F)c2)c1Br`
### Response 90
